Hey, just so you know, these numbers are from patent US20250313533A1.

Tested on: pathogenic bacteria causing bacterial wilt in cassava
Assay: organism not typed
Type: cell-based
Settings: read-out: inhibitory rate
Catalogue of compounds with associated inhibition at 1 ppm

In the examples that follow, each entry is paired with its recorded inhibition at 1 ppm.
compound	measured_metric	recorded_value
COCCCCOC(=O)c1cn(C2CC2)c2cc(Cl)c(F)cc2c1=O [Compound 178]	inhibition at 1 ppm	≥ 90%
O=C(OCCO)c1cn(C2CC2)c2cc(OCC(F)(F)F)ccc2c1=O [Compound 360]	inhibition at 1 ppm	≥ 80%
COCCOC(=O)c1cn(C2CC2)c2cc(N3CCOCC3)c(F)cc2c1=O [Compound 426]	inhibition at 1 ppm	≥ 90%
CCOc1cc2c(cc1F)c(=O)c(C(=O)OCCO)cn2C1CC1 [Compound 265]	inhibition at 1 ppm	≥ 90%

Consider the compound COCOC(=O)c1cn(C2CC2)c2cc(Cl)c(F)cc2c1=O [Compound 143] and give its measured inhibition at 1 ppm. ≥ 80%

---

Test system: pathogenic bacteria causing black rot in Chinese cabbages
Test: In vitro bactericidal activity, black rot in Chinese cabbages
Format: cell-based, xanthomonas
Conditions: Xanthomonas, dosage 1 ppm, read-out: inhibitory rate
measured_metric: inhibition at 1 ppm

Solved entries (count: 6):
compound	measured_metric	recorded_value
COCCOC(=O)c1cn(C2CC2)c2cc(N3CCCCC3)c(F)cc2c1=O [Compound 432]	inhibition at 1 ppm	≥ 90%
COCCOC(=O)c1cn(C2CC2)c2cc(F)ccc2c1=O [Compound 195]	inhibition at 1 ppm	≥ 90%
O=C(OCCO)c1cn(C2CC2)c2cc(OCC(F)(F)F)c(F)cc2c1=O [Compound 275]	inhibition at 1 ppm	≥ 90%
CCOCOC(=O)c1cn(C2CC2)c2cc(Cl)c(F)cc2c1=O [Compound 144]	inhibition at 1 ppm	≥ 80%
O=C(OCCO)c1cn(C2CC2)c2cc(OCC(F)(F)F)ccc2c1=O [Compound 360]	inhibition at 1 ppm	≥ 80%
O=C(OCCO)c1cn(C2CC2)c2cc(N3CCOCC3)c(F)cc2c1=O [Compound 425]	inhibition at 1 ppm	≥ 90%

May I ask what inhibition at 1 ppm has been recorded for CCOc1cc2c(cc1F)c(=O)c(C(=O)OCCCO)cn2C1CC1 [Compound 309] ? ≥ 90%

Consider the compound CCOCCOC(=O)c1cn(C2CC2)c2cc(SCC)c(F)cc2c1=O [Compound 397] and give its measured inhibition at 1 ppm. ≥ 80%

Name the recorded inhibition at 1 ppm for O=C(OCCO)c1cn(C2CC2)c2cc(F)ccc2c1=O [Compound 194] . ≥ 80%

// query inhibition at 1 ppm value for entry COCOC(=O)c1cn(C2CC2)c2cc(Cl)c(F)cc2c1=O [Compound 143] ≥ 80%

Request the reported inhibition at 1 ppm associated with COCCOC(=O)c1cn(C2CC2)c2ccc(Cl)cc2c1=O [Compound 45] ≥ 90%

# query: inhibition at 1 ppm of entry CNc1cc2c(cc1F)c(=O)c(C(=O)OCCOC)cn2C1CC1 [Compound 401] ≥ 90%

Form field: reported inhibition at 1 ppm of CN(C)c1cc2c(cc1F)c(=O)c(C(=O)OCCO)cn2C1CC1 [Compound 413] ≥ 90%

Return reported inhibition at 1 ppm; argument: CCOCOC(=O)c1cn(C2CC2)c2cc(OCC)c(F)cc2c1=O [Compound 312] ≥ 90%

Could you tell me which inhibition at 1 ppm is on file for CC(C)(C)Oc1cc2c(cc1F)c(=O)c(C(=O)OCCO)cn2C1CC1 [Compound 270] ? ≥ 90%

What does the data say about its inhibition at 1 ppm? Entry: O=C(OCCCCO)c1cn(C2CC2)c2cc(Cl)c(F)cc2c1=O [Compound 177] ≥ 90%

Requested read-out: inhibition at 1 ppm. Entry: COCCOC(=O)c1cn(C2CC2)c2cc(N3CCOCC3)c(F)cc2c1=O [Compound 426] ≥ 90%

Query (compound): CCOc1cc2c(cc1F)c(=O)c(C(=O)OCCOC(C)C)cn2C1CC1 [Compound 300] ; field requested: inhibition at 1 ppm ≥ 90%
